These measurements were taken from paper PMC10380619.

Target: full-length recombinant HsNMT1 enzyme (Homo sapiens, UniProt P30419)
Construct: 18.9 nM full-length recombinant HsNMT1 enzyme was incubated
Sequence (P30419 whole entry): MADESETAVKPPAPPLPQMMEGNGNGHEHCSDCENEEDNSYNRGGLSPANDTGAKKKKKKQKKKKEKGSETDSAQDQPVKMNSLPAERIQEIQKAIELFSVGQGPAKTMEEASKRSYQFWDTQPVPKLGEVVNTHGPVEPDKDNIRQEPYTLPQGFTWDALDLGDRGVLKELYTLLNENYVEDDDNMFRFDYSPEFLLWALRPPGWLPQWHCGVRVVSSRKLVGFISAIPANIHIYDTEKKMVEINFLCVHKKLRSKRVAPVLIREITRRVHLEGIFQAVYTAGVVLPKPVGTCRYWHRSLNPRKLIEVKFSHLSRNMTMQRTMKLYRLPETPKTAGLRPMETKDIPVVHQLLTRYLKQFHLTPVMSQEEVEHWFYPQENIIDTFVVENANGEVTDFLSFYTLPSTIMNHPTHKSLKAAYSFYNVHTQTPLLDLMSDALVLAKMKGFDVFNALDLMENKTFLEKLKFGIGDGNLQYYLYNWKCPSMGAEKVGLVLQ
Test: fluorogenic NMT inhibition assay
Details: 18.9 nM HsNMT1, 4 µM Myristoyl-CoA, 4 µM substrate peptide; highest concentration 100 µM
Protocol: Materials and reagents. […] The ZINC IDs and the structures of the compounds are included in Table S1. […] NMT inhibition assay. IC50 values were determined using a fluorogenic NMT assay, as previously described. […] To eliminate the background fluorescence, reactions were also performed in the absence of the NMT1 enzyme for each concentration of the ligands. […]
metric: IC50

Task item: IC50 for `Cc1nc(Nc2cnn(C3CCNCC3)c2)nc2c1N(C)C(=O)c1cc3ccccc3cc1N2C` ?
Reply: > 100 µM
